B1: ZNF449 (parent)
chain: HKKKSPGEKPHRCPQCGKCFARKS

# Variants of: B1
# test-description: protein stability index of a GFP-peptide fusion (GPS, HEK-293T) (PSI 1-6); higher = more stable;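 further: lentivirally expressed fusions sorted by FACS into six bins by GFP to DsRed ratio, PSI derived from sequencing read proportions per bin multiplied by bin number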
# experimental-setup: c terminus: a fixed tail appended
property: protein stability index
API note: the answer field is a bare number with no unit suffix.

variant-code: P6F
protein stability index: 3.36

variant-code: K18P
protein stability index: 2.97

variant-code: C13H
protein stability index: 4.07

variant-code: K4F
protein stability index: 3.52

variant-code: E8Q
protein stability index: 2.99

variant-code: K3P
protein stability index: 3.12

variant-code: H1C
protein stability index: 3.85

Qu. What does the record list as protein stability index for P10T ?
Ans. 3.83

The origin of these recorded values is the supplement of paper PMC10567573.
